Test system: Allernaria tenuis
assayText: MIC against fungi (agar), Alternaria tenuis
Assay type: cell-based
conditionContext: Alternaria alternata, 336 h, beer wort/peptone agar, 2 weeks at 28° C., 60 to 70% relative humidity
measuredQuantity: MIC (µg/mL)
All answers are understood in µg/mL, so give the number only.

Consider the worked cases shown below.
[[record]]
structurenotation = "FC(F)(F)Oc1ccc2c(cnn2SC(F)(Cl)Cl)c1Cl"
measuredquantity = "MIC"
quantitativereadout = 200

[[record]]
structurenotation = "FC(F)(F)Oc1ccc2cnn(SC(F)(Cl)Cl)c2c1"
measuredquantity = "MIC"
quantitativereadout = 75

[[record]]
structurenotation = "Cc1cc(F)cc2c1cnn2SC(F)(Cl)Cl"
measuredquantity = "MIC"
quantitativereadout = 15

[[record]]
structurenotation = "FC(F)(F)Oc1ccc2c(cnn2SC(F)(Cl)Cl)c1"
measuredquantity = "MIC"
quantitativereadout = 20


Kindly review the next compound as well.
Param item = FC(F)(F)Oc1ccc2cnn(SC(Cl)(Cl)Cl)c2c1 ; retrieve measured MIC. 150
